Each entry below carries its recorded cell number change.
METHOD NOTES: qHTS Assay for Lipid Storage Modulators in Drosophila S3 Cells;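 on cell number change: cells counted by Cell Tracker Red CMTPX staining in the red channel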
CONDITION: BODIPY lipid droplet fluorescence, 18-24 h, cells fed with added oleic acid; measured here: cell count max response
Among all 320,000 compounds or so, about 2,100 (0.66%) were called active. About 53% were inconclusive and are not listed. The full list was thinned out, with actives kept by preference.

{"COMPOUND": "COc1ccc(Nc2ccncc2[N+](=O)[O-])cc1", "UNITS OF MEASURE": "%", "cell number change": 12.3}
{"COMPOUND": "Cc1cc(OC(C)C(=O)NCC2CCC(C(=O)O)CC2)c2c(C)cc(=O)oc2c1 (stereo not drawn)", "UNITS OF MEASURE": "%", "cell number change": -0.291}
{"COMPOUND": "C=CCOc1cccc(C(=O)N2CCCC(CNS(=O)(=O)c3cccs3)C2)c1 (stereo not drawn)", "UNITS OF MEASURE": "%", "cell number change": 11.7}
{"COMPOUND": "O=C1c2ccccc2NC(c2cccc([N+](=O)[O-])c2)N1CCc1ccccc1 (stereo not drawn)", "UNITS OF MEASURE": "%", "cell number change": 8.73}
{"COMPOUND": "Cc1ccc(C)n1NC(=O)c1ccccc1", "UNITS OF MEASURE": "%", "cell number change": 1.97}
{"COMPOUND": "CCCOc1ccc(CCC(=O)O)cc1", "UNITS OF MEASURE": "%", "cell number change": 1.83}
{"COMPOUND": "O=C(CS(=O)(=O)c1ccccc1)N1CCCCC1", "UNITS OF MEASURE": "%", "cell number change": 17.3}
{"COMPOUND": "O=C(O)CSc1nc2sc3c(c2c(=O)n1-c1ccccc1)CCC3", "UNITS OF MEASURE": "%", "cell number change": 10.3}
{"COMPOUND": "CCOC(=O)C(=O)NNc1ccc(Cl)cc1", "UNITS OF MEASURE": "%", "cell number change": 0.213}
{"COMPOUND": "Cc1nnsc1S(=O)c1ccccc1Cl (stereo not drawn)", "UNITS OF MEASURE": "%", "cell number change": -9.44}
{"COMPOUND": "O=C1O/C(=C\\C(=O)N2CCOCC2)c2ccccc21", "UNITS OF MEASURE": "%", "cell number change": 1.94}
{"COMPOUND": "CC(=O)C(=Nc1ccccc1Cl)NNc1ccc(Cl)cc1", "UNITS OF MEASURE": "%", "cell number change": -39.5}
{"COMPOUND": "Cc1cccc(NC(=O)CC2C(=O)NC3CCCCC3N2C(=O)c2ccccc2Cl)c1 (stereo not drawn)", "UNITS OF MEASURE": "%", "cell number change": 7.35}

###

METHOD NOTES: qHTS Assay for Lipid Storage Modulators in Drosophila S3 Cells
CONDITION: BODIPY lipid droplet fluorescence, 18-24 h, cells fed with added oleic acid; series mostly up to 46.1 µM
Text: NIH Molecular Libraries Probe Production Centers Network [MLPCN] NIH Chemical Genomics Center [NCGC] […] Triacsin C (Sigma-Aldrich T-4540), an inhibitor of long-chain fatty acyl CoA synthetase that blocks synthesis of triglycerides, was used as a positive control for lipid under-storage. […] Fluorescence was detected by excitation of the fluorophores with a 488-nm laser on an Acumen Explorer (TTP Lab Tech). […] Cells were detected using channel 3 (575-640 nm) with 5-um width and 100-um depth filters. […]
Among all 320,000 compounds or so, about 2,100 (0.66%) were called active. Another 53% or so got no clear call; they are omitted. The sample as a whole holds a higher share of actives than the screen did.

{"COMPOUND STRING": "O=C(CSc1nc2c(c(=O)n1-c1ccc(F)cc1)SCC2)N1CCCC1", "outcome": "inactive"}
{"COMPOUND STRING": "C=CCNC(=O)c1ccc(N(Cc2ccccc2)S(C)(=O)=O)cc1", "outcome": "inactive"}
{"COMPOUND STRING": "COc1ccc(N2CCn3c2nc2c3c(=O)n(CCN3CCOCC3)c(=O)n2C)cc1", "outcome": "inactive"}

###

METHOD NOTES: qHTS Assay for Lipid Storage Modulators in Drosophila S3 Cells
CONDITION: BODIPY lipid droplet fluorescence, 18-24 h, cells fed with added oleic acid; series mostly up to 46.1 µM
Hit rate of the full screen: of about 320,000 compounds, about 2,100 (0.66%) were called active. About 53% were inconclusive and are not listed. Calls follow the shape of the dose curve; as a rule, active = well fitted inhibition curve with a large enough effect in the signal ratio, with a control signal flat (not every such curve was filed as active); inconclusive = small, poorly fitted or top-dose-only effect, or effect the other way, or a change in a side signal; inactive = flat fitted curve, though single readings scatter; the % refers to the signal ratio. The full list was thinned out, with actives kept by preference.
Labels: active, inactive

{"COMPOUND": "CCCC(=O)Nc1c(-c2ccccc2Cl)c(=O)c2ccccc2n1C", "DISCRETE LABEL": "inactive"}
{"COMPOUND": "CSc1ccc(CN(C)C(=O)CSCC(=O)Nc2cc(C)on2)cc1", "DISCRETE LABEL": "inactive"}
{"COMPOUND": "CC(=O)c1c(C)nn(C(C)CC(=O)O)c1C (stereo not given)", "DISCRETE LABEL": "inactive"}
{"COMPOUND": "Cc1nc(C)n(C(C)CC(=O)O)n1 (stereo not given)", "DISCRETE LABEL": "inactive"}
{"COMPOUND": "CCCc1cc(=O)n2[nH]c(C)c(-c3ccc(OC)cc3)c2n1", "DISCRETE LABEL": "active"}

###

METHOD NOTES: qHTS Assay for Lipid Storage Modulators in Drosophila S3 Cells;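 on cell number change: cells counted by Cell Tracker Red CMTPX staining in the red channel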
CONDITION: BODIPY lipid droplet fluorescence, 18-24 h, cells fed with added oleic acid; measured here: cell count max response
Among all 320,000 compounds or so, about 2,100 (0.66%) were called active. Another 53% or so got no clear call; they are omitted. This is one part of a sample in which actives are shown more often than they occur.

{"COMPOUND": "O=C(Nc1ccccc1N1CCOCC1)c1ccc([N+](=O)[O-])o1", "cell number change": "-0.54%"}
{"COMPOUND": "O=C(Nc1cc(Cl)ccc1-n1cncn1)c1ccc([N+](=O)[O-])o1", "cell number change": "8.28%"}
{"COMPOUND": "OCCNc1ncnc2c1sc1nc(N3CCOCC3)c3c(c12)CCC3", "cell number change": "0.136%"}
{"COMPOUND": "Cc1ccc(-c2cc(-c3ccccc3)c(C#N)c(Br)n2)cc1", "cell number change": "-11.3%"}
{"COMPOUND": "Cc1cc(C)c(OCCCCCNCCO)c(C)c1", "cell number change": "-17.5%"}
{"COMPOUND": "COc1cccc(/C=C2/C(=O)NN(c3ccccc3)C2=O)c1", "cell number change": "0.215%"}
{"COMPOUND": "CC(C)(C)c1nc(SCC(=O)Nc2ccc3c(c2)OCCO3)c2ccccc2n1", "cell number change": "-25.4%"}
{"COMPOUND": "O=C(COC(=O)Cn1cnc2ccccc21)NCCc1ccc(Cl)cc1", "cell number change": "22.6%"}
{"COMPOUND": "CCOC(=O)C1CCCN(C(=O)Cc2ccc(C)cc2)C1 (centres undefined)", "cell number change": "14.8%"}
{"COMPOUND": "O=C(Nc1ccccc1N1CCN(C(=O)c2ccccc2)CC1)c1ccc([N+](=O)[O-])o1", "cell number change": "11.7%"}
{"COMPOUND": "O=C1NN(c2ccc(Cl)c(Cl)c2)C(=O)/C1=C/c1cccc(OC(=O)c2cccs2)c1", "cell number change": "-11.7%"}
{"COMPOUND": "O=C(Nc1ccc(C2CC2(Cl)Cl)cc1)c1ccccc1Br (centres undefined)", "cell number change": "13.5%"}
{"COMPOUND": "Cc1cccc(C(=O)NCCC(=O)NCc2ccccc2F)c1", "cell number change": "10.5%"}
{"COMPOUND": "Cc1cccc(C(=O)NCCC(=O)NCc2ccccc2Cl)c1", "cell number change": "-17.5%"}
{"COMPOUND": "O=C1NCCn2ccc(=O)cc21", "cell number change": "4.17%"}
{"COMPOUND": "Cc1cccc(/C=N/NC(=O)c2cc(Br)ccc2O)n1", "cell number change": "0.985%"}
{"COMPOUND": "O=C(COC(=O)Cn1cnc2ccccc21)NCc1ccc(F)cc1", "cell number change": "21.3%"}
{"COMPOUND": "COc1cc2c(cc1OC)CN(c1nc(-c3cccnc3)nc3ccccc13)CC2", "cell number change": "13.3%"}
{"COMPOUND": "Cc1ccc(C(=O)N2CCN(Cc3ccccc3)CC2)o1", "cell number change": "15.9%"}
{"COMPOUND": "Cc1cc(NC(=O)CSc2nc(C(C)(C)C)nc3ccccc23)no1", "cell number change": "-18%"}
{"COMPOUND": "CC(=O)N1CCN(c2nc3ccc([N+](=O)[O-])cc3s2)CC1", "cell number change": "-3.82%"}
{"COMPOUND": "CCCc1nc(SCC(=O)N2CCc3ccccc3C2)c2ccccc2n1", "cell number change": "-13.9%"}
{"COMPOUND": "C/C=N/NC(=O)c1cc(Br)ccc1O", "cell number change": "5.04%"}
{"COMPOUND": "COc1ccc(N2C(=O)CN(Cc3ccc(OC)c(OC)c3)C2=S)cc1", "cell number change": "10.4%"}
{"COMPOUND": "CCOc1ccc(-c2nnn(CC(=O)NCc3cccs3)n2)cc1", "cell number change": "-5.47%"}
{"COMPOUND": "CCOc1ccc(C2c3[nH]c4ccccc4c3C[C@H]3C(=O)N(C4CC4)CC(=O)N23)cc1OC (some centres undefined)", "cell number change": "5.07%"}
{"COMPOUND": "COc1ccc(/C=N/Nc2nnc(-c3ncc[nH]3)c3ccccc23)cc1", "cell number change": "-1.94%"}
{"COMPOUND": "CCC(=O)N1CCN(c2ccc(Cl)cc2NC(=O)Cc2ccccc2)CC1", "cell number change": "12.9%"}
{"COMPOUND": "O=C(c1ccc([N+](=O)[O-])o1)N1CCOCC1", "cell number change": "-1.55%"}
